Assay Notes: Plasma stability of synthetic peptides (LC-MS)
Experimental Setup: human, plasma, plasma half-life t1/2, human plasma, 37 °C, 10 μM, LC-MS, n = 2
Endpoint: half-life (h)
Write the number in h without appending the unit.

// worked examples, half-life included
INSERT INTO measurements (smiles_data, endpoint, reported_value) VALUES
  ('CC(C)C[C@@H]1NC(=O)[C@H](Cc2ccccc2)NC(=O)[C@@H](NC(=O)[C@H](C)N)CSSC[C@@H](C(=O)N[C@@H](CO)C(=O)NCC(N)=O)NC(=O)[C@H](Cc2c[nH]c3ccccc23)NC(=O)[C@H](CC(C)C)NC(=O)[C@H](Cc2c[nH]c3ccccc23)NC(=O)[C@@H]2CSSC[C@H](NC(=O)[C@H](CCCNC(=N)N)NC1=O)C(=O)N[C@@H](Cc1c[nH]cn1)C(=O)N[C@@H](CCCNC(=N)N)C(=O)N[C@@H](CC(=O)O)C(=O)N[C@@H](C(C)C)C(=O)N[C@@H](CCCCN)C(=O)N2', 'half-life', 8.6),
  ('CC(C)C[C@@H]1NC(=O)[C@H](CC(N)=O)NC(=O)[C@H](Cc2ccc(O)cc2)NC(=O)CNC(=O)[C@H](CC(C)C)NC(=O)[C@@H]2CCCN2C(=O)[C@H](CCC(=O)O)NC(=O)[C@@H](NC(=O)[C@H](C)N)CSSC[C@@H](C(=O)N[C@@H](CO)C(=O)NCC(N)=O)NC(=O)[C@H](CC(C)C)NC(=O)[C@H](Cc2ccccc2)NC1=O', 'half-life', 6.5);

Value of measured half-life for the entry CC[C@H](C)[C@@H]1NC(=O)[C@H](Cc2ccccc2)NC(=O)[C@H](Cc2ccccc2)NC(=O)[C@@H](NC(=O)[C@H](C)N)CSSC[C@@H](C(=O)N[C@@H](CO)C(=O)NCC(N)=O)NC(=O)[C@H]([C@@H](C)CC)NC(=O)[C@H](Cc2c[nH]c3ccccc23)NC(=O)[C@H](CCCNC(=N)N)NC(=O)[C@H](CC(N)=O)NC(=O)[C@H](Cc2ccccc2)NC(=O)CNC1=O : 5.4

###

Target Entity: hACE2 (Homo sapiens, UniProt Q9BYF1)
Sequence (Q9BYF1 19-615): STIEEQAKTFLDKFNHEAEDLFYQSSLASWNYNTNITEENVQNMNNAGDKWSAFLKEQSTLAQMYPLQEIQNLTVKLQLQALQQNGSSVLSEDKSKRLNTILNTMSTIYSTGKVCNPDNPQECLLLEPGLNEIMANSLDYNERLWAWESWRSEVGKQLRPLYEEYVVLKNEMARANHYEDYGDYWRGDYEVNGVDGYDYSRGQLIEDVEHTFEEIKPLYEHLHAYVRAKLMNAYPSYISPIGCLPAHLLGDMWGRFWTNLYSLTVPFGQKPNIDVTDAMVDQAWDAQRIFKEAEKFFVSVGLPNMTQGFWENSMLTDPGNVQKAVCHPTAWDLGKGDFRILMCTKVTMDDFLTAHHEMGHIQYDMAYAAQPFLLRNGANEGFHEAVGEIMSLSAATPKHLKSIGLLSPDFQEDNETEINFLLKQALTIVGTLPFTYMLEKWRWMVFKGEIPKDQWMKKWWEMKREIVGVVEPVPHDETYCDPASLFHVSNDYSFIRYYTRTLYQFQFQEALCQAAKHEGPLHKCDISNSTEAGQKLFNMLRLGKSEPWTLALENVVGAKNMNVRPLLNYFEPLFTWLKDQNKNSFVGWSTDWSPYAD
Type: binding
Experimental Setup: yeast-displayed MP, serial dilutions of biotinylated hACE2
Endpoint: binding to hACE2 in yeast surface titration (in words)

INSERT INTO results (chain_sequence, target_entity, reported_value) VALUES
  ('ACEPLGANLFLCSG [GR1.8]', 'hACE2 (Homo sapiens, UniProt Q9BYF1)', 'completely abolished'),
  ('ACEPLAYNLFLCSG [GR1.7]', 'hACE2 (Homo sapiens, UniProt Q9BYF1)', 'completely abolished'),
  ('ACEPAGYNLFLCSG [GR1.6]', 'hACE2 (Homo sapiens, UniProt Q9BYF1)', 'completely abolished');
